biological target: ALK (Homo sapiens, UniProt Q9UM73)
Sequence (Q9UM73 19-1620): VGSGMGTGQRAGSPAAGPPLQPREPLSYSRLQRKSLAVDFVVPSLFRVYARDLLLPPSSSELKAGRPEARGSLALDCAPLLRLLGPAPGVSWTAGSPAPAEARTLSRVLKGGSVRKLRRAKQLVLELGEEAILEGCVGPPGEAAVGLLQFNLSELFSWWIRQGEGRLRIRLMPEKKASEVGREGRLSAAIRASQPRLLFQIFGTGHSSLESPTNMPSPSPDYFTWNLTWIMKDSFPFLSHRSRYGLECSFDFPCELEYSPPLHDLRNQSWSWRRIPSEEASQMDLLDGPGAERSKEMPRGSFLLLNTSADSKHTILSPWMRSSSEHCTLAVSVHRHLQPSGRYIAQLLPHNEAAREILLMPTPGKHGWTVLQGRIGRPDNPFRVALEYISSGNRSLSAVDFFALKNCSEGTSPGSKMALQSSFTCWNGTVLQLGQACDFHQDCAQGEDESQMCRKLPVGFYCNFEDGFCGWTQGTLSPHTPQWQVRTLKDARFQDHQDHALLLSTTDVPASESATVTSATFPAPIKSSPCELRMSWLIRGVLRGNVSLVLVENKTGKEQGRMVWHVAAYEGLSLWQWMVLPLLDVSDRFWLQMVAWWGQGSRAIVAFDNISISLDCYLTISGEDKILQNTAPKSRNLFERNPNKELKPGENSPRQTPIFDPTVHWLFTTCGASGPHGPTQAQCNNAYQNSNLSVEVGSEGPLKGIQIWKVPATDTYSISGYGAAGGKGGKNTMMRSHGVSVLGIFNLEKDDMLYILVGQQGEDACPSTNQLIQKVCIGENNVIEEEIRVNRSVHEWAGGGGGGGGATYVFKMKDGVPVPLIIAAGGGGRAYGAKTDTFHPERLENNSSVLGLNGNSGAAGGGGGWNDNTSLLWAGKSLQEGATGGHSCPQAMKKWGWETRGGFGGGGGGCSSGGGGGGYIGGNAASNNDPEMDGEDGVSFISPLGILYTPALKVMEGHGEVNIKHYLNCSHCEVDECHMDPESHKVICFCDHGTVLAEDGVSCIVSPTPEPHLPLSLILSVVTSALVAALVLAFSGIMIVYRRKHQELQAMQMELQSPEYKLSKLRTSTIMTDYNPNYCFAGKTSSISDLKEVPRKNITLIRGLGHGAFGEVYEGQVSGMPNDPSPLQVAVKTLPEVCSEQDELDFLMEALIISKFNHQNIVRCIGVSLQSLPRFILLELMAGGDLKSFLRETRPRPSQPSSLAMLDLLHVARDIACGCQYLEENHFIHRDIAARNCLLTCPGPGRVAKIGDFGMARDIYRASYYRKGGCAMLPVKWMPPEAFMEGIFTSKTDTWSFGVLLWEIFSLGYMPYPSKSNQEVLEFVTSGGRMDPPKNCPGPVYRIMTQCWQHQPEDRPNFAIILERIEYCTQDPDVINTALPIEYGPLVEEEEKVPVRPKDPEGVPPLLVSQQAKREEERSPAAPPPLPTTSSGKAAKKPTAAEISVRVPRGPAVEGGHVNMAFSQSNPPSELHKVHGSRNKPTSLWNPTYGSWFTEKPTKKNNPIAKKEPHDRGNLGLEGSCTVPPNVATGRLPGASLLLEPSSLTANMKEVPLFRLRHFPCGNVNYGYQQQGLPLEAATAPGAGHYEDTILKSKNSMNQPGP
Reported Metric: IC50 (nM)
One number for each entry, in nM.

Looking up "CCc1cc2c(cc1-c1cccc(S(=O)(=O)F)c1)C(C)(C)c1[nH]c3cc(C#N)ccc3c1C2=O" , I found its IC50 recorded as 195
